The origin of these recorded values is ChEMBL document CHEMBL3885861.

Assignment: determine reported IP for the given compounds.
# Species on record: Rattus norvegicus
# procedure details: Open TG-GATES - Regimen: Single
# Assay type: toxicity, organism-based, Sprague-Dawley
# Set-up: regimen Single, gender Male, age 6 weeks
# run conditions: in vivo, po, 0 mg/kg, 9 h, tissue Plasma, route gavage, dose level Control
Answers are plain numbers, in mg/dL.

Here are 3 compounds together with their reported answers.
compound	value unit	reported
COc1cc([C@@H]2c3cc4c(cc3[C@@H](O[C@@H]3O[C@@H]5CO[C@@H](C)O[C@H]5[C@H](O)[C@H]3O)[C@H]3COC(=O)[C@H]23)OCO4)cc(OC)c1O [ETOPOSIDE]	mg/dL	10.1
CC(CN1c2ccccc2Sc2ccccc21)N(C)C (centres undefined) [PROMETHAZINE]	mg/dL	10
C#C[C@]1(O)CC[C@H]2[C@@H]3CCC4=Cc5oncc5C[C@]4(C)[C@H]3CC[C@@]21C [DANAZOL]	mg/dL	10.1

Could you now consider this next compound?
Annotate the compound CCOC(=O)[C@H](CCc1ccccc1)N[C@@H](C)C(=O)N1CCC[C@H]1C(=O)O with its measured IP.
10.1
